Exercise: for every item that follows, state its recorded cytotoxicity at 10 µM.
Test: Toxicity liver stage against HepG2, at 10uM
Assay type: cell-based
Design: test concentration 10 uM, cell line HepG2-A16-CD81EGFP
Details: human, HepG2-A16-CD81EGFP cells; read-out: INHIBITION
Just the number plus its unit, please.

Example entries and their recorded answers appear below.
molecule	measured_property	value
CC(C)c1noc(C2CCN(C(=O)C3CCCO3)CC2)n1 (stereo unspecified)	cytotoxicity at 10 µM	8.35%
Cc1ccoc1C(=O)N1CCc2ncnc(-c3cnn(C)c3)c2CC1	cytotoxicity at 10 µM	16.9%

Please state, for each entry, its recorded cytotoxicity at 10 µM.
1. COc1nccnc1-c1cccc(-c2ccn(CC3COCCO3)n2)c1 (stereo unspecified)
2. O=C(NCc1ccco1)c1[nH]nc2c1CS(=O)(=O)CC2
3. CC(C)(C)C(=O)NCCCC(=O)NC(C)(C)c1ccc2c(c1)OCO2
4. Cc1nn(C)c(N2CCOCC2)c1CNCc1ccc(C(C)O)cc1 (stereo unspecified)
5. COCCCN1C(=O)CC[C@H]2CN(c3cnc4ccccc4n3)CC[C@H]21
6. Cc1cccc(-c2nc(N)nc3c2CN(C(=O)C2CCCC2)C3C)c1 (stereo unspecified)
7. Cc1cc(=O)n(CC(=O)NC(C)C)c(Nc2ccc(F)c(C)c2)n1

Found:
1: -3.65%; 2: 14.8%; 3: 12.1%; 4: -4.93%; 5: 5.77%; 6: 13.2%; 7: 7.97%

The following molecules each have a reported value; give each one's cytotoxicity at 10 µM.
1. COC(=O)N1CC[C@@]2(O)CCCC[C@H]2[C@@H]1c1ccc2c(c1)OCO2
2. CC(NC(=O)Cn1ccc(=O)n(C)c1=O)c1cc(F)ccc1F (stereo unspecified)

Found:
["2.91%", "-4.64%"]
